Test system: HCT-15 colon
MEASUREMENT_NOTES: NCI-60 one-dose screen, 48 h
TEST_CONDITIONS: 10 µM unless noted
About 83,000 compounds went through this panel and 20% of them were active in at least one assay; those are over-represented in the sample as a whole. Active and inactive are the calls of the source. The calls were made as follows: active = growth percent below 10; inactive = the rest.
Pick one and only one: active, inactive

# fetch the recorded call for N#C/C(=C\c1ccc(-c2cccc(C(F)(F)F)c2)o1)c1nc(-c2ccco2)cs1 here inactive

# fetch the recorded call for CCCCC[C@H]1C/C=C2/C(=O)C(Cl)=C[C@@H]2C/C=C\CCCC(=O)O1 here active

# fetch the recorded call for COc1ccc2c(c1)C/C(=C\c1cc(-c3cc(OC)c(OC)c(OC)c3)n[nH]1)C2=O here inactive

# fetch the recorded call for COc1cccc(-c2nn(-c3ccccc3)cc2-c2ccnc(NCCCNS(=O)(=O)c3ccc(C(F)(F)F)cc3)c2)c1 here inactive

# fetch the recorded call for CCCC1CCCCN1C(=O)OCC(C)C (stereo unspecified) here inactive

# fetch the recorded call for Fc1ccc(Nc2ccc3c(OCCCN4CCOCC4)cccc3n2)cc1F here inactive

# fetch the recorded call for COc1ccc(/C=C/C(=O)NCC(C)O)cc1 (stereo unspecified) here inactive

# fetch the recorded call for N=C(N)c1ccc(S(N)(=O)=O)cc1 here inactive

# fetch the recorded call for O=S(=O)(NCCNc1cc(-c2cn(-c3ccccc3)nc2-c2cccc(O)c2)ccn1)c1ccc(C(F)(F)F)cc1 here inactive

# fetch the recorded call for O=C1CCN2C(=O)Nc3ccccc3C2C1 (stereo unspecified) here inactive

# fetch the recorded call for COc1cccc(-c2nn(-c3ccccc3)cc2-c2ccnc(NCCCNS(=O)(=O)c3ccccc3)c2)c1 here inactive

* * *

Tested on: PC-3 prostate
MEASUREMENT_NOTES: NCI-60 one-dose screen, 48 h
TEST_CONDITIONS: 10 µM unless noted
This is part of a sample that, as a whole, favours compounds with a hit. Of some 83,000 tested, about 20% had one in any assay. Active and inactive are the calls of the source. How the source made its calls: active means growth percent below 10; inactive means the rest.
Pick one and only one: Y (active), N (inactive)

# fetch the recorded call for O=S(=O)(NCCNc1cc(-c2cn(-c3ccccc3)nc2-c2cccc(O)c2)ccn1)c1cccc(F)c1 here N

# fetch the recorded call for COc1cccc(NC(=O)c2sc3nc4c(cc3c2N)C(=O)CCC4)c1 here N

# fetch the recorded call for Oc1ccc(Nc2ccccc2)cc1 here N

# fetch the recorded call for COc1cc(/C=C2\C(=O)N(CC(O)COc3cc(O)c4c(=O)cc(-c5ccccc5)oc4c3)c3ccccc32)cc(OC)c1O (configuration not stated) here N

# fetch the recorded call for COC(=O)[C@]12CC[C@@H](C)[C@H](C)[C@@H]1C1=CC[C@@H]3[C@@]4(C)C[C@@H](O)OC[C@](C)(C=O)C4C(=O)C[C@@]3(C)[C@]1(C)CC2 (some centres not stated) here Y

# fetch the recorded call for CCN1CCN(C(=O)[C@]23CC[C@@H](C)[C@H](C)[C@H]2C2=CC[C@@H]4[C@@]5(C)C/C(=C/c6cccc(OC)c6OC)C(=O)C(C)(C)[C@@H]5CC[C@@]4(C)[C@]2(C)CC3)CC1 here N

# fetch the recorded call for COc1cccc(-c2nn(-c3ccccc3)cc2-c2ccnc(NCCCNS(=O)(=O)c3ccc(Cl)cc3)c2)c1 here N

# fetch the recorded call for CN(C)c1ccc(N)c2ccccc12 here N

# fetch the recorded call for O=C1c2ccccc2NC(c2cn(-c3ccccc3)nc2-c2cccnc2)N1Cc1ccccc1 (configuration not stated) here N

# fetch the recorded call for CC(C)c1cc(C(=O)O)c(O)c(C(C)C)c1.CC(C)c1cc(C(=O)O)c(O)c(C(C)C)c1.[Mn] here N

# fetch the recorded call for C=C1C(=O)O[C@H]2[C@H]1CC/C(Cn1cc(-c3ccc(F)cc3)nn1)=C\CC[C@@]1(C)O[C@@H]21 here N

# fetch the recorded call for Cc1cc(N2CCCCC2)nc(N(CCCNc2ccnc3cc(Cl)ccc23)Cc2ccco2)n1 here Y

# fetch the recorded call for Cc1cc(N(CCNc2ccnc3cc(Cl)ccc23)Cc2ccco2)nc(Cl)n1 here Y

# fetch the recorded call for O=C(O)/C(=C/c1ccc(O)cc1)c1ccccc1 here N

# fetch the recorded call for COCCNC1=C(Cl)C(=O)c2ccccc2C1=O here N

# fetch the recorded call for COc1ccc(-n2c(/C=C/c3ccc(O)c(OC)c3)cc(/C=C/c3ccc(O)c(OC)c3)nc2=O)cc1 here N

# fetch the recorded call for CC(=O)N1N=C(c2ccc(C)cc2)CC1c1ccc(Oc2ccc(Br)cc2)cc1 (configuration not stated) here N

# fetch the recorded call for Cc1cc2nc3c4cc(O)ccc4n(CCN(C)C)c3nc2cc1C here Y

# fetch the recorded call for COc1ccc(/C=C2\N=C(c3ccccc3)N(c3cc(OC)c(OC)cc3C(=O)N3N=C(C)CC3=O)C2=O)cc1 here N

# fetch the recorded call for N#CC1c2ccccc2-c2ccccc2N1C(=O)c1ccccc1 (configuration not stated) here N

# fetch the recorded call for Cn1c2ccccc2c2c3c(c4c5cccnc5[nH]c4c21)C(=O)N(O)C3=O here N

# fetch the recorded call for COc1cc2nc(Cl)nc(Nc3cccc(C(=O)/C=C/c4ccc(Cl)cc4)c3)c2cc1OC here N

# fetch the recorded call for O=c1[nH]c(=S)[nH]c2nc[nH]c12 here N

# fetch the recorded call for Fc1ccc(Nc2nnc(-c3ccc(Cl)cc3)o2)cc1 here N

# fetch the recorded call for Cc1ccc(N(CC(=O)Nc2ccc(S(=O)(=O)NC3CCN(C)CC3)cc2)S(=O)(=O)c2ccc(Cl)cc2)cc1 here N

# fetch the recorded call for COC(=O)[C@]12CC[C@@H](C)[C@H](C)[C@@H]1C1=CC[C@@H]3[C@@]4(C)C[C@@H](OC(C)=O)[C@H](O)[C@@](C)(COC(C)=O)[C@@H]4[C@H](O)C[C@@]3(C)[C@]1(C)CC2 here Y

# fetch the recorded call for Cc1ccsc1-c1ccc2c(c1)COC2(CCCN(C)C)c1ccc(F)cc1 (configuration not stated) here N

# fetch the recorded call for CC(C)=CCC/C(C)=C/CC/C(C)=C/CSC[C@H](NC(=O)CCCCCN1CCN(C)CC1)C(=O)NC1CCCCCC1 here N

# fetch the recorded call for CCCCCC1CCCCN1C(=O)OCC (configuration not stated) here N

# fetch the recorded call for CC(C)(C)c1ccc(OP(=S)(N/N=C/c2ccccc2O)Oc2ccc(C(C)(C)C)cc2)cc1 here N

# fetch the recorded call for Oc1cccc2oc(=S)[nH]c12 here N

# fetch the recorded call for O=C1CN(c2ccccc2)C(=O)C1C(=O)Nc1ccc(Cl)c(Cl)c1 (configuration not stated) here N

# fetch the recorded call for O=Cc1nc2ccccc2[nH]1 here N

# fetch the recorded call for CCCCN1CCCCn2c1nc1c2c(=O)n(C)c(=O)n1C here N

# fetch the recorded call for Cn1cc(-c2csc(-c3cn(CCCN4CCCCC4)c4ccc(Br)cc34)n2)c2cccnc21 here Y

# fetch the recorded call for COC(=O)[C@]12CC[C@@H](C)[C@H](C)[C@@H]1C1=CC[C@@H]3[C@@]4(C)C[C@@H](OC(C)=O)[C@H](O)[C@@](C)(CO)[C@@H]4[C@H](O)C[C@@]3(C)[C@]1(C)CC2 here Y

# fetch the recorded call for Cn1c(/C(C#N)=C/c2ccc3ccccc3c2)cc2ccccc21 here N
